Molecular target: 17β-hydroxysteroid dehydrogenase type 1 (17β-HSD1) (Homo sapiens, UniProt P14061)
Sequence (P14061 whole entry): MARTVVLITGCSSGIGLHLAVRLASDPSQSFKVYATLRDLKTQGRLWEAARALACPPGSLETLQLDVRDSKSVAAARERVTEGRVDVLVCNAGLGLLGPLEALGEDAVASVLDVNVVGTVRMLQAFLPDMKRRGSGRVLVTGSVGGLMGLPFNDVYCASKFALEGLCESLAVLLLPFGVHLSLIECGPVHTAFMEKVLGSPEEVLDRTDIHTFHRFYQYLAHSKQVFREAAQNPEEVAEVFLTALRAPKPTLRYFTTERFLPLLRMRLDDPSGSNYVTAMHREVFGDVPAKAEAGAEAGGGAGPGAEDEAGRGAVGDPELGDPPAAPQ
Experiment: 17β-HSD1 inhibition, in vitro radiosubstrate incubation (E1 to E2), human placental cytosol; Dixon kinetic analysis
Type: biochemical
Conditions: E1 substrate 1.0 µM, NADPH excess; read-out: 17β-HSD1 IC50 ± SD
Protocol: Enzyme inhibition studies were performed by in vitro radiosubstrate incubations using human term placenta cytosol and microsomas as enzyme sources. […] Relative conversions compared to non-inhibited controls (100%) were measured in the presence of 10 µM concentration of the test compound. […] Mechanistic and kinetic investigations were performed and inhibitory constants (Ki) were determined for selected compounds. […]
attribute_measured: pIC50
Give bare numbers, as −log10 of the molar value.

{"compound": "C[C@@]12CC[C@@H]3c4cc(I)c(O)c(I)c4CC[C@H]3[C@@H]1CCC2=O [12a]", "pIC50": 6.00}
{"compound": "C[C@]12CCC[C@H]1[C@@H]1CCc3cc(O)ccc3[C@H]1CC2", "pIC50": 5.96}
{"compound": "C[C@]12CC[C@@H]3c4cc(Br)c(O)c(Br)c4CC[C@H]3[C@@H]1CCC2=O", "pIC50": 6.02}
{"compound": "C[C@]12CCC[C@H]1[C@@H]1CCc3c(ccc(O)c3Br)[C@H]1CC2 [15b]", "pIC50": 4.96}
{"compound": "C[C@]12CCC[C@H]1[C@@H]1CCc3c(ccc(O)c3Cl)[C@H]1CC2 [15c]", "pIC50": 5.35}
{"compound": "C[C@]12CCC[C@H]1[C@@H]1CCc3cc(O)c(Br)cc3[C@H]1CC2 [14b]", "pIC50": 5.89}

Turning to the following compound.
Recorded pIC50 for `C[C@]12CC[C@@H]3c4ccc(O)c(I)c4CC[C@H]3[C@@H]1CCC2=O` , please?
6.44
